molecular target: human LILRB2 expressed on cells (human, UniProt Q8N423 22-597); experiment: cell-based or functional assay
Sequence (Q8N423 other isoform, or with tags, fused parts or gaps limits assumed): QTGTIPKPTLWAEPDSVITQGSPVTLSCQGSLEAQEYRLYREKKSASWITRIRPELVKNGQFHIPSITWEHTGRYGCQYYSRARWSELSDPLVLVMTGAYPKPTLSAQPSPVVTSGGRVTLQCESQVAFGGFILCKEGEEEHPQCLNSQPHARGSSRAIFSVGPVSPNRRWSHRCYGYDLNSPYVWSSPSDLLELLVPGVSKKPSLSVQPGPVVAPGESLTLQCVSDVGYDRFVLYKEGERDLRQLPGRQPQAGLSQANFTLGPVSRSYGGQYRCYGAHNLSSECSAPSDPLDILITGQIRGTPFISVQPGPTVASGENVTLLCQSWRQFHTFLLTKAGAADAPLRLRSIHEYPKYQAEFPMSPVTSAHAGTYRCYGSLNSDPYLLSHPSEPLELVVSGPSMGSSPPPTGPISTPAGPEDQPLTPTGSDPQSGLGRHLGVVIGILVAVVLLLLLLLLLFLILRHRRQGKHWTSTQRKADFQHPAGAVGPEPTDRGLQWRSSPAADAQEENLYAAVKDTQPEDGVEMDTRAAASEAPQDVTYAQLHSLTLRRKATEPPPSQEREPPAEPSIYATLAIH
ENDPOINT NAME: IL-6 production (fold over LPS alone)
Please reply with the bare figure in fold over LPS alone and do not write the unit itself.

BINDER | IL-6 production (fold over LPS alone)
J-03 (antibody, human IgG4 S228P, kappa, V domains shown, Human IgG4 chimera of murine origin) VH: QVQLQQSGAELVRPGASVTLSCKASGYKFTDYEMHWVKQTPVHGLEWIGAIDPETNGTAYNKKFKGKAILTADKSSSTAYMELRSLTSEDSAVYYCTRGDYDFSAWFAYWGQGTLVTVSA VL: DIVLTQSPASLAVSLGQRATISCRASESVDNYDISFMHWYQQKPGQPPKLLIYRASNLESGIPARFSGSGSRTDFTLTINPVETDDVATYYCQQSNKDPRTFGGGTKLEIKR | 1.1

Kindly note the recorded IL-6 production (fold over LPS alone) for J-17 (antibody, human IgG4 S228P, kappa, V domains shown, Human IgG4 chimera of murine origin; also called J-17.h) VH: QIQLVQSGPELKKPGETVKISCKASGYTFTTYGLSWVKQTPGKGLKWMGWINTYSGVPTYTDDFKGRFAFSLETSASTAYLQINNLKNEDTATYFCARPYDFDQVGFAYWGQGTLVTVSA VL: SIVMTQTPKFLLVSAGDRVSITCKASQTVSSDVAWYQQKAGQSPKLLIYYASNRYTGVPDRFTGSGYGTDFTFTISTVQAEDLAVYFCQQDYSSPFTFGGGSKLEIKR , which is 2.57
